Where these numbers come from: patent US9545105B2

- Assay Text: log P by HPLC on reversed-phase column (C 18), EEC Directive 79/831 Annex V.A8
- Assay type: physicochemical
- Condition Parameters: HPLC on reversed-phase column (C 18); 40° C.; 0.1% aqueous formic acid and acetonitrile; linear gradient 10% to 90% acetonitrile
Readout Kind: logP
Lab note: record just the number, no unit beside it.

stdin: Data request, read-out logP, for Cc1cc(C)cc(C2CCCCN2C(=O)c2c(C(F)(F)F)cn(C)c2Cl)c1 (stereo not shown)
stdout: 4.59

stdin: Data request, read-out logP, for Cc1cc(C(=O)N2CCCCC2c2ccc(Br)cc2)c(C)o1 (stereo not shown)
stdout: 4.16

stdin: Data request, read-out logP, for CCc1nn(C)c(F)c1C(=O)N1CCCCC1c1cccc(Cl)c1 (stereo not shown)
stdout: 3.31

stdin: Data request, read-out logP, for Cc1cc(C(=O)N2CCCCC2c2ccc3c(c2)OCO3)c(C)o1 (stereo not shown)
stdout: 3.33

stdin: Data request, read-out logP, for CCc1nn(C)c(F)c1C(=O)N1CCCCC1c1ccc2ccccc2c1 (stereo not shown)
stdout: 3.58

stdin: Data request, read-out logP, for Cn1nc(C(F)F)c(C(=O)N2CCCCC2Cc2cccc(F)c2)c1F (stereo not shown)
stdout: 3.13

stdin: Data request, read-out logP, for Cc1cc(C(=O)N2CCCCC2c2cccc(Cl)c2Cl)c(C)o1 (stereo not shown)
stdout: 4.29

stdin: Data request, read-out logP, for CCc1noc(C)c1C(=O)N1CCCCC1c1cccc(Oc2ccccc2)c1 (stereo not shown)
stdout: 4.16

stdin: Data request, read-out logP, for Cc1cc(C)cc(C2CCCCN2C(=O)c2nn(C)cc2I)c1 (stereo not shown)
stdout: 3.55

stdin: Data request, read-out logP, for CCc1nn(C)c(F)c1C(=O)N1CCCCC1c1cc(OC)c(OC)c(OC)c1 (stereo not shown)
stdout: 2.49

stdin: Data request, read-out logP, for CC(c1ccccc1Cl)C1CCCCN1C(=O)c1c(C(F)F)nn(C)c1F (stereo not shown)
stdout: 3.72

stdin: Data request, read-out logP, for Cn1nc(C(F)F)c(C(=O)N2CCCCC2c2cccc(Oc3ccccc3)c2)c1F (stereo not shown)
stdout: 3.99

stdin: Data request, read-out logP, for Cn1nc(C(F)F)c(C(=O)N2CCCCC2CCOc2ccc(C(F)(F)F)cn2)c1F (stereo not shown)
stdout: 3.57

stdin: Data request, read-out logP, for Cc1cc(C(=O)N2CCCCC2Cc2ccc(F)cc2)c(C)o1 (stereo not shown)
stdout: 3.57

stdin: Data request, read-out logP, for Cc1cc(C(=O)N2CCCCC2c2ccccc2C)c(C)o1 (stereo not shown)
stdout: 3.73

stdin: Data request, read-out logP, for CCC(c1ccccc1)C1CCCCN1C(=O)c1c(C(F)F)nn(C)c1F (stereo not shown)
stdout: 3.59

stdin: Data request, read-out logP, for Cn1nc(C(F)F)c(C(=O)N2CCCCC2c2ccccc2Br)c1F (stereo not shown)
stdout: 3.39

stdin: Data request, read-out logP, for Cc1cc(C)cc(C2CCCCN2C(=O)c2cc(C)oc2C)c1 (stereo not shown)
stdout: 4.34

stdin: Data request, read-out logP, for Cc1nn(C)c(F)c1C(=O)N1CCCCC1c1ccccc1Br (stereo not shown)
stdout: 2.99
